PROCEDURE DETAILS: Cytotoxicity against human THP1 cells assessed as cell viability at 50 uM after 24 hrs by MTT assay
Format: cell-based, THP-1
STATED CONDITIONS: read-out: Activity
Measured viability at 24 h, 50 µM, listed per entry.

STRUCTURE: CC/N=C1\O[C@H]2[C@H](O[C@@H]3[C@@H](C)[C@H](O[C@H]4C[C@@](C)(OC)[C@@H](O)[C@H](C)O4)[C@@H](C)C(=O)O[C@H](CC)[C@@](C)(O)[C@H](O)[C@@H](C)N(C)C[C@H](C)C[C@@]3(C)O)O[C@H](C)C[C@@H]2N1C
viability at 24 h, 50 µM (%): 0

STRUCTURE: CC[C@H]1OC(=O)[C@H](C)[C@@H](O[C@H]2C[C@@](C)(OC)[C@@H](O)[C@H](C)O2)[C@H](C)[C@@H](O[C@@H]2O[C@H](C)C[C@H]3[C@H]2O/C(=N\C(C)(C)C)N3C)[C@](C)(OC)C[C@@H](C)C(=O)N[C@H](C)[C@@H](O)[C@]1(C)O
viability at 24 h, 50 µM (%): 0

STRUCTURE: CC[C@H]1OC(=O)[C@H](C)[C@@H](O[C@H]2C[C@@](C)(OC)[C@@H](O)[C@H](C)O2)[C@H](C)[C@@H](O[C@@H]2O[C@H](C)C[C@H]3[C@H]2O/C(=N\C(C)C)N3C)[C@](C)(O)C[C@@H](C)CN(C)[C@H](C)[C@@H](O)[C@]1(C)O
viability at 24 h, 50 µM (%): 9

STRUCTURE: CC/N=C1\O[C@H]2[C@H](O[C@@H]3[C@@H](C)[C@H](O[C@H]4C[C@@](C)(OC)[C@@H](O)[C@H](C)O4)[C@@H](C)C(=O)O[C@H](CC)[C@@](C)(O)[C@H](O)[C@@H](C)C(=O)[C@H](C)C[C@@]3(C)OC)O[C@H](C)C[C@@H]2N1C
viability at 24 h, 50 µM (%): 0
